Target: cyno IL-17A (cynomolgus monkey, UniProt A0A2K5TTB0 24-155)
Sequence (A0A2K5TTB0 entry or part of it): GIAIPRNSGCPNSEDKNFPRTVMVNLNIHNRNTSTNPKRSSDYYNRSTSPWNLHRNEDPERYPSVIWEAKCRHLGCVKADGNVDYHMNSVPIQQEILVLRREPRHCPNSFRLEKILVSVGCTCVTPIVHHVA
Experiment: SPR Biacore, captured binder
Recorded Kd, one value per entry.

| binder | readout.qualifier | Kd (pM) |
| --- | --- | --- |
| IL17-G9-M2 (antibody, V domains shown, converted into IgG) VH: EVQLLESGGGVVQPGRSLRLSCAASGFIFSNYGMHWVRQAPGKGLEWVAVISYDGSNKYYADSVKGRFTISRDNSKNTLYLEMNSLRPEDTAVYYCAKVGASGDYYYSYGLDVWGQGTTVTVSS VL: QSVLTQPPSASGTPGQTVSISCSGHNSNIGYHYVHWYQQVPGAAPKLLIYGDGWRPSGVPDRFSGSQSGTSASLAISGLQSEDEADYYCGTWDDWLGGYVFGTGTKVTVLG | < | 2.45 |
| IL17-B6-17 (antibody, V domains shown) VH: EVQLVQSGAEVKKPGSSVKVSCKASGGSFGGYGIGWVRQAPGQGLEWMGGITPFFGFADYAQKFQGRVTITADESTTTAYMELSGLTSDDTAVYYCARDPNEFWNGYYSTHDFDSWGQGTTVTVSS VL: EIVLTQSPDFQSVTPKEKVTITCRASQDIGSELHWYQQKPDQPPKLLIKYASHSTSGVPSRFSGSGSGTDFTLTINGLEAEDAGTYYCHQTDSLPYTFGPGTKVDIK | = | 1.03 |
| IL17-B6-15 (antibody, V domains shown) VH: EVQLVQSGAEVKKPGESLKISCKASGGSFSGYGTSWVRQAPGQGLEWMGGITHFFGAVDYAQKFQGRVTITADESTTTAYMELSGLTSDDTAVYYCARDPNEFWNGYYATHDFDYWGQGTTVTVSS VL: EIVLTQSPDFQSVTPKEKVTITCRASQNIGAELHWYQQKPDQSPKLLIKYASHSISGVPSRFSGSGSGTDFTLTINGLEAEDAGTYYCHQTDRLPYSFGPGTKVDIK | = | 4.01 |
| IL17-B6-16 (antibody, V domains shown) VH: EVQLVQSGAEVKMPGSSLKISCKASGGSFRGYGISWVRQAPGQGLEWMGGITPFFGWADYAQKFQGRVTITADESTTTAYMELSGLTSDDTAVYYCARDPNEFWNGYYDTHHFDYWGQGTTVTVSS VL: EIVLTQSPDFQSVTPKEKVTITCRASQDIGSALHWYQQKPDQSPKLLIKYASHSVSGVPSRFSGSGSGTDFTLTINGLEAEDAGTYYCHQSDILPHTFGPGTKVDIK | = | 4.83 |
| IL17-TN-L7-G9 (antibody, V domains shown, Fully human antibody) VH: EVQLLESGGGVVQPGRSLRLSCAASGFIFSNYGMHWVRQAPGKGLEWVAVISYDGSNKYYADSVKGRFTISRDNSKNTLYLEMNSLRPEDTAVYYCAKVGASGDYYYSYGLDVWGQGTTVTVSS VL: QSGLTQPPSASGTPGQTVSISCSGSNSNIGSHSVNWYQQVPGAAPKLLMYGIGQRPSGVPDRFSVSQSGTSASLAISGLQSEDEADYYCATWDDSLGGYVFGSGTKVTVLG | = | 2070 |
| IL17-B6-5 (antibody, V domains shown, also called pJP243 B6.1 #5VH / pJP244 B6.1 #5VK) VH: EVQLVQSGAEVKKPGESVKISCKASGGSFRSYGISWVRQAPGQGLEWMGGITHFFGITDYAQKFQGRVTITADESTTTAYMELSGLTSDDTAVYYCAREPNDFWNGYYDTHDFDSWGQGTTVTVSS VL: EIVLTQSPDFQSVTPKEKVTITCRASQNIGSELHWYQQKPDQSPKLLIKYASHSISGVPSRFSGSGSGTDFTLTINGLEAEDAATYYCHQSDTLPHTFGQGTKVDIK | = | 5.39 |
| IL17-TN-K7-B6 (antibody, V domains shown, Fully human antibody) VH: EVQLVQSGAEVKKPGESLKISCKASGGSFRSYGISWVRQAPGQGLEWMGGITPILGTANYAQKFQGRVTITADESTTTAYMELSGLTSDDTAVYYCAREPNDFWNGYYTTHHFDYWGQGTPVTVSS VL: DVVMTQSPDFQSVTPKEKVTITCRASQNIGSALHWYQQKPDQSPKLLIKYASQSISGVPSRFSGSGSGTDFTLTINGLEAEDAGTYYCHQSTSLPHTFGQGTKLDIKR | = | 992 |
| IL17-G9-2 (antibody, V domains shown) VH: EVQLLESGGGVVQPGRSLRLSCAASGFIFRNYGMHWVRQAPGKGLEWVAVISYDGSNKYYADSVKGRFTISRDNSKNTLYLEMNSLRPEDTAVYYCAKVGASGDYYYSYGLDVWGQGTTVTVSS VL: QSVLTQPPSASGTPGQTVSISCSGSNSNIGRHPVDWYQQVPGAAPKLLIYYDDQRPSGVPDRFSGSQSGTSASLAISGLQSEDEADYYCATWDDSLGGYVFGSGTKVTVLG | < | 2.7 |
